Tested on: RAW-Dual (murine macrophage reporter line)
Assay: NF-kB reporter (SEAP) activity fold change vs agonist alone; higher = enhanced NF-kB activity
Settings: modulator concentration 10 µM; agonist: MPLA […]
Hi, to clarify the labels: Criterion met covers NF-kB reporter from 0.8 upward, Criterion not met covers anything below 0.8.

CCS(=O)(=O)N1CCN(c2ccc(Nc3ncc(C(N)=O)c(NC4CC4)n3)cc2)CC1.Cl: Criterion not met
CCOC(=O)C1=C(C)NC(C)=C(C(=O)OCC)C1c1ccc(Cl)c(Cl)c1: Criterion met
COC(=O)c1cccc(Nc2nc(C=Cc3ccccc3)nc3ccccc23)c1: Criterion met
Cc1ccc(Nc2nccc(N(C)c3ccc4c(C)n(C)nc4c3)n2)cc1S(N)(=O)=O: Criterion met

Item O=C1Nc2ccc(Cl)cc2[C@@](C#CC2CC2)(C(F)(F)F)O1 with NF-kB reporter of 0.8 or above?
Criterion not met

src = the supplement of paper PMC10646978
